Readings of selectivity ratio for the listed compounds
# protocol.summary: Selectivity index, ratio of IC50 for human CEM cells to EC50 for HIV1 3B
# Format: toxicity, cell-based, CCRF-CEM
# test.settings: read-out: Ratio IC50/EC50
# print the numeric value only

Example entries and their recorded answers appear below.
CO[C@H](C(=O)[C@@H](O)[C@@H](C)O)[C@@H]1Cc2cc3c(/N=N/c4ccccc4)c(O)cc(O)c3c(O)c2C(=O)[C@H]1O[C@H]1C[C@@H](O[C@H]2C[C@@H](O[C@H]3C[C@](C)(O)[C@@H](OC(=O)C(C)C)[C@H](C)O3)[C@H](O)[C@@H](C)O2)[C@H](O)[C@@H](C)O1
30
CO[C@H](C(=O)[C@@H](O)[C@@H](C)O)[C@@H]1Cc2cc3c(/N=N/c4ccc(Cl)c(Cl)c4)c(O)cc(O)c3c(O)c2C(=O)[C@H]1O[C@H]1C[C@@H](O[C@H]2C[C@@H](O[C@H]3C[C@](C)(O)[C@@H](OC(=O)C(C)C)[C@H](C)O3)[C@H](O)[C@@H](C)O2)[C@H](O)[C@@H](C)O1
5.2

Then this compound:
For COc1ccc(/N=N/c2c(O)cc(O)c3c(O)c4c(cc23)C[C@@H]([C@H](OC)C(=O)[C@@H](O)[C@@H](C)O)[C@H](O[C@H]2C[C@@H](O[C@H]3C[C@@H](O[C@H]5C[C@](C)(O)[C@@H](OC(=O)C(C)C)[C@H](C)O5)[C@H](O)[C@@H](C)O3)[C@H](O)[C@@H](C)O2)C4=O)cc1 the compound record lists selectivity ratio as 52

###

# Test system: Punta Toro virus
# protocol.summary: Antiviral activity against Punta Toro virus infected in african green monkey Vero cells at subtoxic concentration
# Format: functional, organism-based
Activity calls are given as the source filed them. The calls are words filed in the database; no cut-off is given here.
recorded.endpoint: Activity

CO[C@H](C(=O)[C@@H](O)[C@@H](C)O)[C@@H]1Cc2cc3c(/N=N/c4ccc(Cl)c(Cl)c4)c(O)cc(O)c3c(O)c2C(=O)[C@H]1O[C@H]1C[C@@H](O[C@H]2C[C@@H](O[C@H]3C[C@](C)(O)[C@@H](OC(=O)C(C)C)[C@H](C)O3)[C@H](O)[C@@H](C)O2)[C@H](O)[C@@H](C)O1
inactive
CO[C@H](C(=O)[C@@H](O)[C@@H](C)O)[C@@H]1Cc2cc3c(/N=N/c4ccccc4)c(O)cc(O)c3c(O)c2C(=O)[C@H]1O[C@H]1C[C@@H](O[C@H]2C[C@@H](O[C@H]3C[C@](C)(O)[C@@H](OC(=O)C(C)C)[C@H](C)O3)[C@H](O)[C@@H](C)O2)[C@H](O)[C@@H](C)O1
inactive
CO[C@H](C(=O)[C@@H](O)[C@@H](C)O)[C@@H]1Cc2cc3c(/N=N/c4ccc(S(N)(=O)=O)cc4)c(O)cc(O)c3c(O)c2C(=O)[C@H]1O[C@H]1C[C@@H](O[C@H]2C[C@@H](O[C@H]3C[C@](C)(O)[C@@H](OC(=O)C(C)C)[C@H](C)O3)[C@H](O)[C@@H](C)O2)[C@H](O)[C@@H](C)O1
inactive
COc1ccc(/N=N/c2c(O)cc(O)c3c(O)c4c(cc23)C[C@@H]([C@H](OC)C(=O)[C@@H](O)[C@@H](C)O)[C@H](O[C@H]2C[C@@H](O[C@H]3C[C@@H](O[C@H]5C[C@](C)(O)[C@@H](OC(=O)C(C)C)[C@H](C)O5)[C@H](O)[C@@H](C)O3)[C@H](O)[C@@H](C)O2)C4=O)cc1
inactive
